Assay: Solubility of Compound 1-dihydrochloride in IPA/water mixtures
Type: physicochemical
Details: IPA/water mixture, 25 °C, aqueous with cosolvent or surfactant or cyclodextrin, thermodynamic from solid, IPA/H2O (90:10), 25° C.
Where a name gives a salt, the structure may show the parent alone.
attribute.measured: solubility at 24 h (µg/mL)
Quick reminder: number only, in µg/mL, skip the unit.

Memo: NCCN[C@H]1CC[C@H](CC(=O)N[C@H]2Cc3cccc(C(=O)O)c3OB2O)CC1 [Compound 1-dihydrochloride] , reported solubility at 24 h: 4200

====

Experiment: In vitro human serum protein binding
Assay type: in vitro ADME
Details: human
attribute.measured: fraction unbound

Memo: `NCCN[C@H]1CC[C@H](CC(=O)N[C@H]2Cc3cccc(C(=O)O)c3OB2O)CC1` , reported fraction unbound: 0.63

====

Assay: Solubility of Compound 1-dihydrochloride in IPA/water mixtures
Assay type: physicochemical
Conditions: IPA/water mixture, 5 °C, aqueous with cosolvent or surfactant or cyclodextrin, thermodynamic from solid, IPA/H2O (40:60), 5° C.
Where a name gives a salt, the structure may show the parent alone.
attribute.measured: solubility at 24 h (mg/mL)
Quick reminder: number only, in mg/mL, skip the unit.

Memo: NCCN[C@H]1CC[C@H](CC(=O)N[C@H]2Cc3cccc(C(=O)O)c3OB2O)CC1 [Compound 1-dihydrochloride] , reported solubility at 24 h: 271

====

Assay: Solubility of Compound 1-dihydrochloride in IPA/water mixtures
Assay type: physicochemical
Conditions: IPA/water mixture, 5 °C, aqueous with cosolvent or surfactant or cyclodextrin, thermodynamic from solid, IPA/H2O (90:10), 5° C.
Structures can show the parent of a compound that is named as a salt.
attribute.measured: solubility at 24 h

Memo: NCCN[C@H]1CC[C@H](CC(=O)N[C@H]2Cc3cccc(C(=O)O)c3OB2O)CC1 [Compound 1-dihydrochloride] , reported solubility at 24 h: 4200 µg/mL

====

Test: Solubility of Compound 1-dihydrochloride in IPA/water mixtures
Assay type: physicochemical
Conditions: IPA/water mixture, 50 °C, aqueous with cosolvent or surfactant or cyclodextrin, thermodynamic from solid, IPA/H2O (50:50), 50° C.
Structures can show the parent of a compound that is named as a salt.
attribute.measured: solubility at 24 h (mg/mL)
Quick reminder: number only, in mg/mL, skip the unit.

Memo: NCCN[C@H]1CC[C@H](CC(=O)N[C@H]2Cc3cccc(C(=O)O)c3OB2O)CC1 [Compound 1-dihydrochloride] , reported solubility at 24 h: 528

====

Experiment: Solubility of Compound 1-dihydrochloride in IPA/water mixtures
Type: physicochemical
Settings: IPA/water mixture, 40 °C, aqueous with cosolvent or surfactant or cyclodextrin, thermodynamic from solid, IPA/H2O (70:30), 40° C.
Counter-ions that a name gives are not always drawn.
attribute.measured: solubility at 24 h (mg/mL)
Quick reminder: number only, in mg/mL, skip the unit.

Memo: NCCN[C@H]1CC[C@H](CC(=O)N[C@H]2Cc3cccc(C(=O)O)c3OB2O)CC1 [Compound 1-dihydrochloride] , reported solubility at 24 h: 189

====

Experiment: Solubility of Compound 1-dihydrochloride in IPA/water mixtures
Type: physicochemical
Conditions: IPA/water mixture, 5 °C, aqueous with cosolvent or surfactant or cyclodextrin, thermodynamic from solid, IPA/H2O (70:30), 5° C.
Where a name gives a salt, the structure may show the parent alone.
attribute.measured: solubility at 24 h (mg/mL)
Quick reminder: number only, in mg/mL, skip the unit.

Memo: NCCN[C@H]1CC[C@H](CC(=O)N[C@H]2Cc3cccc(C(=O)O)c3OB2O)CC1 [Compound 1-dihydrochloride] , reported solubility at 24 h: 78.6

====

Assay: Aqueous solubility as a function of pH (phosphate buffers, HPLC-UV)
Format: physicochemical
Conditions: aqueous buffer, thermodynamic from solid; Phosphate Buffer pH 8, pH (24 h) 8.1, 25° C.; read-out: Conc. (mg/ml) 24 hours
Procedure: A known amount of Compound 1 was weighed directly into 5 ml vials and 1 ml of each phosphate buffer was added; the solutions obtained were kept at controlled temperature (25° C.) and magnetically stirred up to 24 hours. Aliquots of obtained suspensions or solutions were centrifuged (14000 rpm 10 minutes) and withdrawn at two predefined time points (4 hours and 24 hours) appropriately diluted and analyzed by HPLC-UV using the analytical method parameters summarized in the Table 9.
attribute.measured: solubility thermodynamic at 24 h (mg/mL)
Quick reminder: number only, in mg/mL, skip the unit.

Memo: Cl.Cl.NCCN[C@H]1CC[C@H](CC(=O)N[C@H]2Cc3cccc(C(=O)O)c3OB2O)CC1 [Form 1] , reported solubility thermodynamic at 24 h: 68.3

====

Assay: Solubility of Compound 1-dihydrochloride in IPA/water mixtures
Assay type: physicochemical
Conditions: IPA/water mixture, 25 °C, aqueous with cosolvent or surfactant or cyclodextrin, thermodynamic from solid, IPA/H2O (80:20), 25° C.
Procedure: In order to design a re-crystallization process for Compound 1-dihydrochloride salt from water as solvent and IPA as anti-solvent, the solubility of the API in these combinations were determined. […] Upon completion of the incubation time the solids were separated from the mother liquors by centrifugation and filtration and the concentration of Compound 1 in solution was determined by HPLC analysis. The remaining solids were analyzed by HT-XRPD.
Structures can show the parent of a compound that is named as a salt.
attribute.measured: solubility at 24 h

Memo: NCCN[C@H]1CC[C@H](CC(=O)N[C@H]2Cc3cccc(C(=O)O)c3OB2O)CC1 [Compound 1-dihydrochloride] , reported solubility at 24 h: 41.7 mg/mL

====

Assay: Solubility of Compound 1-dihydrochloride in IPA/water mixtures
Type: physicochemical
Settings: IPA/water mixture, 50 °C, aqueous with cosolvent or surfactant or cyclodextrin, thermodynamic from solid, IPA/H2O (80:20), 50° C.
Where a name gives a salt, the structure may show the parent alone.
attribute.measured: solubility at 24 h (mg/mL)
Quick reminder: number only, in mg/mL, skip the unit.

Memo: NCCN[C@H]1CC[C@H](CC(=O)N[C@H]2Cc3cccc(C(=O)O)c3OB2O)CC1 [Compound 1-dihydrochloride] , reported solubility at 24 h: 102

====

Test: Solubility of Compound 1-dihydrochloride in IPA/water mixtures
Assay type: physicochemical
Details: IPA/water mixture, 5 °C, aqueous with cosolvent or surfactant or cyclodextrin, thermodynamic from solid, IPA/H2O (80:20), 5° C.
Structures can show the parent of a compound that is named as a salt.
attribute.measured: solubility at 24 h
Answer format reminder: number followed by unit.

Memo: NCCN[C@H]1CC[C@H](CC(=O)N[C@H]2Cc3cccc(C(=O)O)c3OB2O)CC1 [Compound 1-dihydrochloride] , reported solubility at 24 h: 28 mg/mL

====

Assay: Solubility of Compound 1-dihydrochloride in IPA/water mixtures
Assay type: physicochemical
Conditions: IPA/water mixture, 50 °C, aqueous with cosolvent or surfactant or cyclodextrin, thermodynamic from solid, IPA/H2O (70:30), 50° C.
Description: In order to design a re-crystallization process for Compound 1-dihydrochloride salt from water as solvent and IPA as anti-solvent, the solubility of the API in these combinations were determined. […] Upon completion of the incubation time the solids were separated from the mother liquors by centrifugation and filtration and the concentration of Compound 1 in solution was determined by HPLC analysis. The remaining solids were analyzed by HT-XRPD.
Counter-ions that a name gives are not always drawn.
attribute.measured: solubility at 24 h (mg/mL)
Quick reminder: number only, in mg/mL, skip the unit.

Memo: NCCN[C@H]1CC[C@H](CC(=O)N[C@H]2Cc3cccc(C(=O)O)c3OB2O)CC1 [Compound 1-dihydrochloride] , reported solubility at 24 h: 235

====

Assay: Aqueous solubility as a function of pH (phosphate buffers, HPLC-UV)
Format: physicochemical
Conditions: aqueous buffer, thermodynamic from solid; Phosphate Buffer pH 7, pH (24 h) 7.0, 25° C.; read-out: Conc. (mg/ml) 24 hours
attribute.measured: solubility thermodynamic at 24 h (mg/mL)
Quick reminder: number only, in mg/mL, skip the unit.

Memo: Cl.Cl.NCCN[C@H]1CC[C@H](CC(=O)N[C@H]2Cc3cccc(C(=O)O)c3OB2O)CC1 [Form 1] , reported solubility thermodynamic at 24 h: 87.8

====

Test: Solubility of Compound 1-dihydrochloride in IPA/water mixtures
Format: physicochemical
Settings: IPA/water mixture, 25 °C, aqueous with cosolvent or surfactant or cyclodextrin, thermodynamic from solid, IPA/H2O (60:40), 25° C.
Structures can show the parent of a compound that is named as a salt.
attribute.measured: solubility at 24 h (mg/mL)
Quick reminder: number only, in mg/mL, skip the unit.

Memo: NCCN[C@H]1CC[C@H](CC(=O)N[C@H]2Cc3cccc(C(=O)O)c3OB2O)CC1 [Compound 1-dihydrochloride] , reported solubility at 24 h: 205

====

Test: Solubility of Compound 1-dihydrochloride in IPA/water mixtures
Assay type: physicochemical
Conditions: IPA/water mixture, 5 °C, aqueous with cosolvent or surfactant or cyclodextrin, thermodynamic from solid, IPA/H2O (60:40), 5° C.
Counter-ions that a name gives are not always drawn.
attribute.measured: solubility at 24 h (mg/mL)
Quick reminder: number only, in mg/mL, skip the unit.

Memo: NCCN[C@H]1CC[C@H](CC(=O)N[C@H]2Cc3cccc(C(=O)O)c3OB2O)CC1 [Compound 1-dihydrochloride] , reported solubility at 24 h: 129
